Reported melting point values follow for various compounds
Parameter: melting point

• Cc1cc2cc(CN3CCC(CCC(=O)N(C)C)CC3)cnc2cc1NC(=O)c1ccc(-c2ccc(F)cc2)cc1 = 193 to 196 °C
• CC=CCCCn1cnc2c1c(=O)n(C)c(=O)n2C = 58 to 64 °C
• CNCC1=C(C#N)C(c2cccc(C#N)c2Br)c2c[nH]nc2N1 (stereo not given) = 258 °C
• O=C(c1ccccc1)c1ccc(OCCCCOc2ccc(C(=O)c3ccccc3)cc2)cc1 = 163 to 164 °C
• Cc1cccc(C(=O)Nc2cn(C3CCCCO3)nc2C(=O)NCCC#N)n1 (stereo not given) = 186 to 187 °C
• CN1CCC(OC(c2cccc(N=[N+]=[N-])c2)c2nc3ccccc3[nH]2)CC1 (stereo not given) = 53 °C
• Cc1cnc2c(NC(=O)c3c(Cl)cccc3Cl)cccc2c1-n1ccnc1 = 224 to 228 °C
• CC(C(=O)O)c1ccc(CC2CCCC2=O)cc1 (stereo not given) = 108 to 111 °C
• Nc1ccc(C=Cc2ccncn2)cc1 = 227 to 230 °C
• COc1ccccc1-n1c(=O)[nH]c2c(C(N)=O)nc(-c3cccc(C(=O)O)c3)nc21 = 348 to 350 °C

----------
Known melting point of a selection of molecules
Parameter: melting point

- CCOC(=O)C(=O)/C=C/c1ccc(OCCc2nc(-c3ccccc3)oc2C)cc1: 99 to 100 °C
- C=CC(O)C1=C(C)C(=NO)CCC1(C)C (stereo not given): 138 to 142 °C
- O=C(NC(Cc1ccc(OCc2ccccc2F)cc1)C(=O)O)c1cn2ccc(-c3ccc(Cl)cc3)cc2n1 (stereo not given): 250 to 252 °C
- Cc1cc(C(C)c2ccccc2)c(O)c(-n2nc3ccc(Cl)cc3n2)c1 (stereo not given): 113 to 115 °C
- CCCCc1oc2ccccc2c1CCc1ccc(OS(=O)(=O)c2ccc(C(=O)O)c(OC(C)=O)c2)cc1: 54 to 57 °C
- O=c1c2cccnc2n(-c2cccc(Cl)c2)c2cc[nH]c12: 300 to 301 °C
- Nc1nc(Cl)nc(N(CCC(=O)O)Cc2ccc(Cl)c(Cl)c2)n1: 105 to 110 °C
- CC1(C)Oc2ccsc2C(NC(=O)c2ccncc2)C1O (stereo not given): 223 to 234 °C
- CNCC(O)COc1cc(-c2ccc(OC)cc2)nc2cc(C)ccc12 (racemic): 140 to 142 °C
- Cn1nnnc1-c1cnc2cc(Br)ccc2c1O: > 300 °C

----------
Parameter: melting point

• O=c1nc(CN2CCC[C@H](OCc3cc(Cl)cc(Cl)c3)[C@@H]2c2ccccc2)[nH][nH]1 = > 220 °C
• COc1ccc(CNc2cc(C(c3cc(F)ccc3F)S(=O)(=O)c3ccc(F)cc3)c(Cl)cn2)cc1OC (stereo not drawn) = 158 to 159 °C
• CN1CCN(S(=O)(=O)c2cc(NC(=O)c3cnn4c(C(F)F)cc(-c5ccc(C(F)(F)F)cc5)nc34)c(Cl)s2)CC1 = 293 °C
• C[Si](C)(C)CCCOc1cc(Cl)c([N+](=O)[O-])cc1Cl = 45 to 48 °C
• O=[N+]([O-])C=C(Cl)SCCCNS(=O)(=O)c1ccccc1 = 105 to 106 °C
• CC[C@@H](c1ccc(F)cc1)N(Cc1ccc(C(=O)OC)cc1)S(=O)(=O)c1ccc(Cl)cc1 = 73 to 75 °C
• CCCCCCCCCCCCCCCCCCNC(=O)OCC(CN(C(C)=O)S(=O)(=O)CCCI)NC(C)=O (stereo not drawn) = 118 to 119 °C
• CCOC1(OCC)OC(C)=C(C(=O)Nc2ccc(Cl)cc2)[C@@H](NC(C)=O)[C@@H]1C (relative stereo) = 199 to 201 °C

Taken from a melting point compilation (Tetko et al.; mined from patent text by program, amines drawn as free bases though some values may be those of a salt).
